Test system: HCV 1a replicon
Assay: HCV GT1a replicon assay in Huh-7 cells
Type: cell-based, Hepatitis C virus
Conditions: Hepatitis C virus; Huh-7 cells transfected with HCV replicon, 72 hours incubation; read-out: EC50 against HCV 1a genotype
Experimental: HCV Replicon System was utilized as an evaluation model in the present disclosure for verifying the effects of the compounds disclosed herein on HCV. An HCV Replicon assay was first described in Science, 1999, 285 (5424), 110-3. […] To determine the potential anti-HCV effects of the test compounds, luciferase assay and antibiotic Neomycin resistance gene were tested according to the method described in Science. 1999 Jul. 2; 285 (5424), 110-3 and J. Virol. 2003 March; 77 (5), 3007-19. […]
pEC50: −log10 of the molar value.
Everything with pEC50 lower than 9 is not fulfilled; everything else, including exactly 9, is fulfilled.

Check out these entries, answers already filled in.
INSERT INTO results (compound, class_name) VALUES
  ('COC(=O)N[C@H](C(=O)N1CCC[C@H]1C(=O)Nc1ccc(-c2ccc(-c3ccc4nc([C@@H]5CCCN5C(=O)[C@@H](NC(=O)OC)C(C)C)[nH]c(=O)c4c3)c3c2CC2(CCCC2)C3)cc1)C(C)C', 'not fulfilled'),
  ('COC(=O)N[C@H](C(=O)N1CCC[C@H]1C1=Nc2cc(-c3cnc(-c4ccc(-c5cnc([C@@H]6CCCN6C(=O)[C@@H](NC(=O)OC)C(C)C)[nH]5)cc4)c4c3CC3(CCCC3)C4)ccc2S(=O)(=O)N1)C(C)C', 'fulfilled'),
  ('COC(=O)N[C@H](C(=O)N1CCC[C@H]1c1ncc(-c2ccc(-c3sc(-c4ccc5nc([C@@H]6CCCN6C(=O)[C@@H](NC(=O)OC)C(C)C)[nH]c5c4)c4c3CC3(CCCC3)C4)c3cnoc23)[nH]1)C(C)C', 'not fulfilled'),
  ('COC(=O)N[C@H](C(=O)N1CC(F)(F)CC1c1nc(-c2ccc(-c3ccc(-c4ccc5nc([C@@H]6CC(F)(F)CN6C(=O)[C@@H](NC(=O)OC)C(C)C)[nH]c(=O)c5c4)c4c3CC3(CCOCC3)C4)cc2)c[nH]1)C(C)C (stereo partly drawn)', 'fulfilled'),
  ('COC(=O)NC(C(=O)N1CCCC1c1cc(=O)c2cc(-c3ccc(-c4ccc(-c5cnc(C6CCCN6C(=O)C(NC(=O)OC)C(C)C)[nH]5)cc4)c4c3CC3(CCCC3)C4)ccc2[nH]1)C(C)C (stereo not drawn)', 'not fulfilled');

Now look at this one.
[in] Tell me whether pEC50 is at least 9 here: COC(=O)NC(C(=O)N1CCCC1C1=Nc2cc(-c3ccc(-c4ccc(-c5cnc(C6CCCN6C(=O)C(NC(=O)OC)C(C)C)[nH]5)cc4)c4c3CC3(CCCC3)C4)ccc2C(C)(C)N1)C(C)C (stereo not drawn)
[out] fulfilled

----------
system: HCV 1a replicon; assay: HCV GT1a replicon assay in Huh-7 cells; assay type: cell-based, Hepatitis C virus; conditions: Hepatitis C virus; Huh-7 cells transfected with HCV replicon, 72 hours incubation; read-out: EC50 against HCV 1a genotype
Recorded EC50 by entry
// units = pM; emit number, no label

[in] Quick check: EC50 of CC(C)[C@H](NC(=O)Oc1ccccc1)C(=O)N1CC(C)(C)C[C@H]1c1ncc(-c2ccc(-c3ccc(-c4ccc5nc([C@@H]6CC(C)(C)CN6C(=O)[C@@H](NC(=O)Oc6ccccc6)C(C)C)[nH]c(=O)c5c4)c4c3CC3(CCCC3)C4)cc2)[nH]1 [Example 19] ?
[out] 4770

[in] Field entry: COC(=O)N[C@H](C(=O)N1CCC[C@H]1c1ncc(-c2ccc(-c3ccc(-c4ccc5nc([C@@H]6CC7CC7N6C(=O)[C@@H](NC(=O)OC)C(C)C)[nH]c(=O)c5c4)c4c3OC3(CCCC3)O4)cc2)[nH]1)C(C)C (stereo partly shown) [Example 11]
[out] 68

[in] Also COC(=O)NC(C(=O)N1CCC[C@@H]1c1ncc(-c2ccc(-c3ccc(-c4ccc5nc([C@@H]6CCCN6C(=O)[C@@H](NC(=O)OC)C(C)C)[nH]c(=O)c5c4)c4c3CC3(CCCC3)C4)cc2)[nH]1)C(C)C (stereo partly shown) [Example 34] ?
[out] 641

[in] Likewise for COC(=O)N[C@H](C(=O)N1CCC[C@H]1c1ncc(-c2ccc(-c3ccc(-c4ccc5nc([C@@H]6CC7CC7N6C(=O)[C@@H](NC(=O)OC)C(C)C)[nH]c(=O)c5c4)c4c3CC3(CCCC3)C4)c3c2CCC3)[nH]1)C(C)C (stereo partly shown) [Example 25] ?
[out] 829
